# assay.procedure: Solubility in alpha MEM
# Format: physicochemical
Class 1 (yes): solubility at least 2000 µM. Class 0 (no): solubility below 2000 µM.

{"columns": ["compound", "discrete.label"],
 "data": [
  ["O=C(NCCO)c1cc(N(CCBr)CCBr)c([N+](=O)[O-])cc1[N+](=O)[O-]", "0 (no)"],
  ["NC(=O)c1cc(N(CCOS(N)(=O)=O)CCOS(N)(=O)=O)c([N+](=O)[O-])cc1[N+](=O)[O-]", "0 (no)"],
  ["O=C(NCC(O)CO)c1cc(N(CCI)CCI)c([N+](=O)[O-])cc1[N+](=O)[O-] (stereo unspecified)", "0 (no)"],
  ["CS(=O)(=O)OCCN(CCI)c1cc(C(N)=O)c([N+](=O)[O-])cc1[N+](=O)[O-]", "0 (no)"],
  ["CS(=O)(=O)c1cc([N+](=O)[O-])c(C(N)=O)cc1N(CCCl)CCCl", "0 (no)"],
  ["NC(=O)c1cc(N(CCI)CCI)c([N+](=O)[O-])cc1[N+](=O)[O-]", "0 (no)"],
  ["CS(=O)(=O)c1cc([N+](=O)[O-])c(N(CCCl)CCCl)cc1C(=O)NCC(O)CO (stereo unspecified)", "1 (yes)"],
  ["O=C(NCC(O)CO)c1cc(N(CCCl)CCCl)c([N+](=O)[O-])cc1[N+](=O)[O-] (stereo unspecified)", "1 (yes)"],
  ["CS(=O)(=O)OCCN(CCOS(C)(=O)=O)c1cc(C(=O)NCC(O)CO)c([N+](=O)[O-])cc1[N+](=O)[O-] (stereo unspecified)", "1 (yes)"],
  ["CS(=O)(=O)OCCN(CCBr)c1cc(C(=O)NO)c([N+](=O)[O-])cc1[N+](=O)[O-]", "0 (no)"],
  ["CS(=O)(=O)NC(=O)c1cc(N(CCCl)CCCl)c([N+](=O)[O-])cc1[N+](=O)[O-]", "1 (yes)"]
]}
